Reference source for all entries: ChEMBL document CHEMBL1914342

Dear all, this message contains pIC50 results, target or system Epidermal growth factor receptor (Homo sapiens, UniProt P00533).
Remember, pIC50 is on a log scale: it is -log10 of the molar concentration.

Guide cases for pIC50, answers given:
[[record]]
substance_smiles = "C[C@@H](Nc1ncnc2[nH]c(-c3ccc(F)cc3)cc12)c1ccccc1"
property = "pIC50"
number = 8.18

[[record]]
substance_smiles = "C[C@@H](Nc1ncnc2[nH]c(-c3ccc(Br)cc3)cc12)c1ccc(F)cc1"
property = "pIC50"
number = 7.54

[[record]]
substance_smiles = "C[C@@H](Nc1nc[nH]c2nc(-c3ccccc3)cc1-2)c1ccccc1"
property = "pIC50"
number = 8.48

[[record]]
substance_smiles = "C[C@@H](Nc1ncnc2[nH]c(-c3ccc(C#N)cc3)cc12)c1ccccc1"
property = "pIC50"
number = 7.92

[[record]]
substance_smiles = "C[C@@H](Nc1ncnc2[nH]c(-c3ccc(O)cc3)cc12)c1ccccc1F"
property = "pIC50"
number = 8.10

[[record]]
substance_smiles = "Oc1ccc(-c2cc3c(NCc4cccc(F)c4)ncnc3[nH]2)cc1"
property = "pIC50"
number = 7.28


Input `CC[C@@H](Nc1ncnc2[nH]c(-c3ccc(O)cc3)cc12)c1ccccc1` , output reported pIC50.
8.40

Input `Cc1ccc([C@@H](C)Nc2ncnc3[nH]c(-c4ccc(O)cc4)cc23)cc1` , output reported pIC50.
6.35

Input `C[C@@H](Nc1ncnc2[nH]c(-c3ccc(O)cc3)cc12)c1cccc(F)c1` , output reported pIC50.
8.05
